MEASUREMENT DESCRIPTION: Pharmacokinetics of saponins in rat plasma after oral gavage of raw
Type: in vivo, Sprague–Dawley rats
RUN CONDITIONS: male, Sprague-Dawley, rat, plasma, po, 1 g/kg, t1/2, male SD rats, oral gavage of raw P. notoginseng aqueous extract 1 g/kg, n = 6, mean ± SD
METRIC NAME: half-life (h)
# number only, unit h dropped from output

See these solved cases before continuing.
COMPOUND	UNITS LABEL	half-life
CC(C)=CCC[C@](C)(O[C@@H]1O[C@H](CO)[C@@H](O)[C@H](O)[C@H]1O)[C@H]1CC[C@]2(C)[C@@H]1[C@H](O)C[C@@H]1[C@@]3(C)CC[C@H](O)C(C)(C)[C@@H]3[C@@H](O[C@@H]3O[C@H](CO)[C@@H](O)[C@H](O)[C@H]3O[C@@H]3O[C@@H](C)[C@H](O)[C@@H](O)[C@H]3O)C[C@]12C [Re, ginsenoside Re]	h	3.16
CC(C)=CCC[C@](C)(O[C@@H]1O[C@H](CO)[C@@H](O)[C@H](O)[C@H]1O)[C@H]1CC[C@]2(C)[C@@H]1[C@H](O)C[C@@H]1[C@@]3(C)CC[C@H](O[C@@H]4O[C@H](CO)[C@@H](O)[C@H](O)[C@H]4O[C@@H]4O[C@H](CO)[C@@H](O)[C@H](O)[C@H]4O)C(C)(C)[C@@H]3CC[C@]12C [Rd, ginsenoside Rd]	h	13.9
CC(C)=CCC[C@](C)(O[C@@H]1O[C@H](CO[C@@H]2O[C@H](CO)[C@@H](O)[C@H](O)[C@H]2O)[C@@H](O)[C@H](O)[C@H]1O)[C@H]1CC[C@]2(C)[C@@H]1[C@H](O)C[C@@H]1[C@@]3(C)CC[C@H](O[C@@H]4O[C@H](CO)[C@@H](O)[C@H](O)[C@H]4O[C@@H]4O[C@H](CO)[C@@H](O)[C@H](O)[C@H]4O)C(C)(C)[C@@H]3CC[C@]12C [Rb1, ginsenoside Rb1]	h	9.58

Could you now look at the following compound, please?
Q: Which half-life is reported for this compound? CC(C)=CCC[C@](C)(O[C@@H]1O[C@H](CO)[C@@H](O)[C@H](O)[C@H]1O)[C@H]1CC[C@]2(C)[C@@H]1[C@H](O)C[C@@H]1[C@@]3(C)CC[C@H](O)C(C)(C)[C@@H]3[C@@H](O[C@@H]3O[C@H](CO)[C@@H](O)[C@H](O)[C@H]3O)C[C@]12C [Rg1, ginsenoside Rg1]
A: 7.92
